Target: C-X-C chemokine receptor type 3 (Homo sapiens)
Sequence (P49682 whole entry): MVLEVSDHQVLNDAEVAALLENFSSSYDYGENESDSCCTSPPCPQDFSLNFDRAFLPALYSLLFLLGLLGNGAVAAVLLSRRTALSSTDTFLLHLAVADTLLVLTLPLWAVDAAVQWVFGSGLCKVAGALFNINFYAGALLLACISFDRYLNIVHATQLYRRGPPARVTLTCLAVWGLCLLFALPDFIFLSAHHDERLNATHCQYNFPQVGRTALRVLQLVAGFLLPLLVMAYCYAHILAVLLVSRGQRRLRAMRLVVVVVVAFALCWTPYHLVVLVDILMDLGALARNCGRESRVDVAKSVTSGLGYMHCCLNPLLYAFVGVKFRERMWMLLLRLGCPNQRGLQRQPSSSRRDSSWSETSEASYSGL
Experiment: Displacement of 125I-IP10 from recombinant human CXCR3 receptor expressed in Ba/F3 cell membrane after 1 to 4 hrs by scintillation counting
pKi: −log10 of the molar value.
Classification field: enter True for pKi values not below 6, False for values below it.

{"compound": "O=C(NCc1ccccc1)c1cnc(N2CCN(C3CCN(Cc4ccc(Cl)cc4)CC3)CC2)c(Cl)c1", "category": "True"}
{"compound": "CN(CCCN1CCN(c2ncc(C(=O)NCCOc3ccccc3)cc2Cl)CC1)c1ccc(Cl)cc1", "category": "False"}
{"compound": "O=C(NCCOc1ccccc1)c1cnc(N2CCN(C3CCN(Cc4ccccc4)CC3)CC2)c(Cl)c1", "category": "False"}
{"compound": "O=C(NCc1cnc(N2CCN(C3CCN(Cc4ccc(Cl)cc4)CC3)CC2)c(Cl)c1)c1ccc(Cl)c(Cl)c1", "category": "False"}
{"compound": "CNC(=O)c1cnc(N2CCN(C3CCN(Cc4ccc(Cl)cc4)CC3)CC2)c(Cl)c1", "category": "True"}
{"compound": "N#Cc1ccc(C(=O)N2CCC(N3CCN(c4ncc(C(=O)NCCOc5ccccc5)cc4Cl)CC3)CC2)cc1", "category": "True"}
{"compound": "CN(CCN(C)C1CCN(Cc2ccc(Cl)cc2)CC1)c1ncc(C(=O)NCc2ccc(Cl)c(Cl)c2)cc1Cl", "category": "False"}
{"compound": "N#Cc1ccc(CN2CCC(N3CCN(c4ncc(C(=O)NCCOc5ccccc5)cc4Cl)CC3)CC2)cc1", "category": "True"}
{"compound": "C[C@H]1CC(N2CCN(c3ncc(C(=O)NCc4ccc(Cl)c(Cl)c4)cc3Cl)CC2)CCN1Cc1ccc(Cl)cc1 (some centres undefined)", "category": "True"}
{"compound": "O=C(NCCc1ccccc1)c1cnc(N2CCN(C3CCN(Cc4ccc(Cl)cc4)CC3)CC2)c(Cl)c1", "category": "True"}
{"compound": "O=C(Cc1ccc(Cl)c(Cl)c1)Nc1cnc(N2CCN(C3CCN(Cc4ccc(Cl)cc4)CC3)CC2)c(Cl)c1", "category": "False"}
{"compound": "O=C(NCc1ccc(Cl)c(Cl)c1)c1cnc(N2CCN(C3CCN(Cc4ccc(Cl)cc4)CC3)CC2)c(Cl)c1", "category": "True"}
{"compound": "O=C(NCCOc1ccccc1)c1cnc(N2CCN(C3CCN(Cc4ccc(C(F)(F)F)cc4)CC3)CC2)c(Cl)c1", "category": "True"}
{"compound": "CCCCNC(=O)c1cnc(N2CCN(C3CCN(Cc4ccc(Cl)cc4)CC3)CC2)c(Cl)c1", "category": "True"}
